Target: human bradykinin 1 receptor (B1R) (Homo sapiens, UniProt P46663)
Construct: expressed in transfected cells; host or cells: CHO K1 cells
Sequence (P46663 1-353): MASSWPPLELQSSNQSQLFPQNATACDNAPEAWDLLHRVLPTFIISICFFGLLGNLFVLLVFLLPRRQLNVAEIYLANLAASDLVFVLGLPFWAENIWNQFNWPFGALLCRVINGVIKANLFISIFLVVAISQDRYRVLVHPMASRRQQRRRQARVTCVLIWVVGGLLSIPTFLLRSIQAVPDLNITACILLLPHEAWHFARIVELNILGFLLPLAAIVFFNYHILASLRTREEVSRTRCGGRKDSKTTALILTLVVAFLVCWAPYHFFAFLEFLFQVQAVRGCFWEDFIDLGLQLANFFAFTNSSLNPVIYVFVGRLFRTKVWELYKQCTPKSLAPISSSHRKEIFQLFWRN
Experiment: Functional investigation on the human bradykinin 1 receptor (B1R), Ca2+ FLIPR assay in CHO K1 hB1R cells
Assay type: cell-based
Conditions: B1R antagonism human; test substance 10 μM; Ca2+ FLIPR, CHO K1 hB1R cells
So basically: B1R Ant. h [10 μM] % Inhibition at 40% or higher? That is yes. Lower than 40%? That is no.

Here's what some known entries look like.
                                   compound  category
0  COc1ccc(S(=O)(=O)N2CCCCC2COCC(=O)NCC2CCC(C(c3ccc(Cl)cc3)N(C)C)CC2)c(OC)c1 (centres unmarked)       yes
1  Cc1cc(C)c(S(=O)(=O)N(C)CCOCC(=O)NCCC2CCC(C(c3ccc(Cl)cc3)N(C)C)CC2)c(C)c1 (centres unmarked)       yes
2  COc1ccc(S(=O)(=O)N2CCC(OCC(=O)NCCC3CCC(C(c4ccc(Cl)cc4)N(C)C)CC3)C2)cc1OC (centres unmarked)        no
3  COc1ccc(S(=O)(=O)N2CCCCC2COCC(=O)NC2CCC(C(c3cccc(F)c3)N(C)C)CC2)cc1 (centres unmarked)        no
4  O=C(COC1CCCN(S(=O)(=O)c2c(Cl)cc(Cl)cc2Cl)C1)NC1CCC(C(CCc2ccccc2)N2CCOCC2)CC1 (centres unmarked)        no
5  COc1cc(C)c(S(=O)(=O)N(CCOCC(=O)NCCC2CCC(C(c3cccc(F)c3)N(C)C)CC2)Cc2ccccc2)c(C)c1C (centres unmarked)        no

Enquiry: Decide: is the reported value of B1R Ant. h [10 μM] % Inhibition for COc1cc(C)c(S(=O)(=O)N2CCC(OCC(=O)NCC3CCC(C(CCc4ccccc4)N(C)C)CC3)CC2)c(C)c1C (centres unmarked) equal to or greater than 40%?
Return: no

Enquiry: Decide: is the reported value of B1R Ant. h [10 μM] % Inhibition for Cc1ccc(S(=O)(=O)N2CCC(OCC(=O)NCC3CCC(C(c4ccc(F)cc4)N(C)C)CC3)C2)cc1 (centres unmarked) equal to or greater than 40%?
Return: no

Enquiry: Decide: is the reported value of B1R Ant. h [10 μM] % Inhibition for CN(C)C(c1ccc(F)cc1)C1CCC(NC(=O)COCC2CCCN(S(=O)(=O)c3ccccc3)C2)CC1 (centres unmarked) equal to or greater than 40%?
Return: no

Enquiry: Decide: is the reported value of B1R Ant. h [10 μM] % Inhibition for COc1ccc(S(=O)(=O)N(C)CCOCC(=O)NC2CCC(C(c3ccc(F)cc3)N(C)C)CC2)cc1OC (centres unmarked) equal to or greater than 40%?
Return: no

Enquiry: Decide: is the reported value of B1R Ant. h [10 μM] % Inhibition for COc1cc(C)c(S(=O)(=O)N2CCN(CCOCC(=O)NCCC3CCC(C(c4ccc(F)cc4)N(C)C)CC3)CC2)c(C)c1C (centres unmarked) equal to or greater than 40%?
Return: yes

Enquiry: Decide: is the reported value of B1R Ant. h [10 μM] % Inhibition for COc1cc(C)c(S(=O)(=O)N2CCC(OCC(=O)NCCC3CCC(C(c4ccc(F)cc4)N(C)C)CC3)C2)c(C)c1 (centres unmarked) equal to or greater than 40%?
Return: yes

Enquiry: Decide: is the reported value of B1R Ant. h [10 μM] % Inhibition for CN(C)C(c1cccs1)C1CCC(CCNC(=O)COC2CCCCC2N(C)S(=O)(=O)c2ccc(Cl)c(Cl)c2)CC1 (centres unmarked) equal to or greater than 40%?
Return: no
